B1: REST corepressor 3, residues 87 to 134; numbered along this chain, Q9P2K3 (parent)
chain: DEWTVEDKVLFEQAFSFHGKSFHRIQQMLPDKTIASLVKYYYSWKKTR

- Variants of: B1
- procedure_text: abundance fitness (aPCA) (normalised: wild type 0, dead -1); higher = more abundant; growth selection in yeast, the domain comes from the species named
- conditions: Homo sapiens
quantity_name: abundance fitness

sequence_change=F15T test_value=-0.604
sequence_change=K45L test_value=-0.597
sequence_change=Q13S test_value=-0.584
